TARGET OR SYSTEM: Luciferin 4-monooxygenase (Photinus pyralis)
TEST: qHTS profiling assay for firefly luciferase inhibitor/activator using purifed enzyme and Km concentrations of substrates (counterscreen for miR-21 project); further: nearly all actives have a fitted effect of over 55% in size
EXPERIMENTAL CONTEXT: purified FLuc, luminescence inhibition; series mostly up to 57.5 µM
In all, about 360,000 compounds went through this assay and about 25,000 (6.9%) were called active. Another 9% or so got no clear call; they are omitted. The call rests on the fitted dose curve; in most records, active means well fitted inhibition curve with a large enough effect; inconclusive means small, poorly fitted or top-dose-only effect; inactive means flat fitted curve, though single readings scatter. For the sample, actives were picked, then their nearest neighbours and some compounds at random.
Possible outcomes: active, inactive

>>> category("CCn1c(/C=N/NC(=O)c2ccc(OC)cc2)nc2ccccc21")
"active"
>>> category("COc1ccc(/C=N/NC(=O)c2ccc3c(c2)OCCO3)c(OC)c1")
"active"
>>> category("CCOc1cc(/C=N/NC(=O)c2cc(-c3ccccc3)nc3ccccc23)ccc1O")
"active"
>>> category("Cc1cc(C)c2nc3nc(C)cc(C)c3c(N)c2c1")
"active"
>>> category("CC(=O)Nc1c(C)nn(-c2ccccc2)c1N1CCC(C(=O)Nc2cc(Cl)ccc2C)CC1")
"inactive"
>>> category("CCN(CC)S(=O)(=O)c1ccc(N2CCOCC2)c(NC(=O)c2ccc(=O)n(C)n2)c1")
"inactive"
>>> category("Cc1ccc(/C(N)=N/OC(=O)COc2ccc(Cl)c(C)c2)cc1")
"inactive"
>>> category("CCn1c(SCC(=O)N/N=C/c2ccncc2)nc2ccccc21")
"inactive"
>>> category("COc1ccc(/C=N/NC(=O)CNC(=O)c2ccc(S(=O)(=O)N3CCCC3)cc2)c(OC)c1")
"inactive"
>>> category("CCCCCn1c(CCNC(=O)c2ccc(F)cc2)nc2ccccc21")
"inactive"

* * *

TARGET OR SYSTEM: Luciferin 4-monooxygenase (Photinus pyralis)
TEST: qHTS profiling assay for firefly luciferase inhibitor/activator using purifed enzyme and Km concentrations of substrates (counterscreen for miR-21 project); further: nearly all actives have a fitted effect of over 55% in size
EXPERIMENTAL CONTEXT: purified FLuc, luminescence inhibition; series mostly up to 57.5 µM
Among all 360,000 compounds or so, about 25,000 (6.9%) were called active. About 9% were inconclusive and are not listed. Calls follow the shape of the dose curve; as a rule, active = well fitted inhibition curve with a large enough effect; inconclusive = small, poorly fitted or top-dose-only effect; inactive = flat fitted curve, though single readings scatter. The full list was thinned out, with actives kept by preference.
Classes used: active, inactive

>>> category("Cc1nc2cc(NC(=O)NC3CC3)ccc2n1C")
"inactive"
>>> category("Cn1ncc(Br)c1C(=O)NCc1cccs1")
"inactive"
>>> category("Cc1cccc(-c2oc3ccc(-c4ccc5c(c4)OCO5)cc3c2C#Cc2cncn2C)c1")
"inactive"
>>> category("CCCCC(CC)CNC(=O)C1CCN(S(=O)(=O)c2cccc3nsnc23)CC1 (stereo not drawn)")
"inactive"
>>> category("CCOC(=O)N1CCC(NC(=O)c2cnn(-c3cccc(C)c3)c2C2CCN(C(=O)OC(C)(C)C)CC2)CC1")
"inactive"
>>> category("Cc1nc2cc(NCc3cccs3)ccc2n1C")
"active"
>>> category("COc1cccc(NC(=O)Nc2nnc(N3CCCCC3C)s2)c1 (stereo not drawn)")
"active"
>>> category("Cc1nn(CC(=O)Nc2ccc3c(c2)nc(CN2CCCCC2)n3C)c(=O)c2ccccc12")
"inactive"
>>> category("COc1cccc(CNc2nccn(-c3ccc(OC)c(OC)c3)c2=O)c1")
"inactive"
>>> category("CC(C)C(C)NC(=O)COc1ncnc2ccccc12 (stereo not drawn)")
"inactive"
>>> category("CCC(Sc1nnc(-c2ccc(OC)cc2)c(-c2ccc(OC)cc2)n1)C(=O)NC1CCCCC1 (stereo not drawn)")
"inactive"
>>> category("CCOc1ccc(N(CC)S(=O)(=O)N2CCCC(C(=O)Nc3ccc(C(C)=O)cc3)C2)cc1 (stereo not drawn)")
"inactive"
>>> category("C=CCN(C(=O)Nc1ccc2c(c1)nc(C)n2C)c1ccccc1")
"active"
>>> category("Cc1nc2cc(NC(=O)Nc3cccc(F)c3)ccc2n1C")
"active"
>>> category("CCOC(=O)c1ccc(CSc2nnc3cc(C)c4ccccc4n23)cc1")
"inactive"
>>> category("CNC(=O)c1csc(Cc2c(Cl)sc3ccc(Cl)cc23)n1")
"inactive"
>>> category("CC(C)(C)OC(=O)N1CCC(c2c(C(=O)N3CCc4ccccc4C3)cnn2-c2ccc(F)cc2)CC1")
"inactive"
>>> category("CCOC(=O)N1CCN(Cc2nc3cc(NC(=O)CC)ccc3n2CC)CC1")
"inactive"
>>> category("Cc1ccccc1NC(=O)CN1C(=O)C(C)(C)c2ccccc21")
"inactive"
>>> category("Cc1cc(C(=O)OCC(=O)Nc2nnc(C(C)C)s2)c2ccccc2n1")
"inactive"
>>> category("COc1cccc(NC(=O)NCCN2CCCCC2)c1")
"inactive"
>>> category("COc1ccc(OC)c(NC(=O)C2CCN(S(=O)(=O)c3ccc(C)cc3)CC2)c1")
"inactive"
>>> category("CC(C)c1ccc(-c2nn[nH]n2)cc1")
"active"
